# assayComment: self-splicing fitness, log relative to wild type (ln ratio); higher = more splicing; Tetrahymena group I intron in knt gene, E. coli kanamycin selection, DiMSum; sequences stand for … in CUCUCU…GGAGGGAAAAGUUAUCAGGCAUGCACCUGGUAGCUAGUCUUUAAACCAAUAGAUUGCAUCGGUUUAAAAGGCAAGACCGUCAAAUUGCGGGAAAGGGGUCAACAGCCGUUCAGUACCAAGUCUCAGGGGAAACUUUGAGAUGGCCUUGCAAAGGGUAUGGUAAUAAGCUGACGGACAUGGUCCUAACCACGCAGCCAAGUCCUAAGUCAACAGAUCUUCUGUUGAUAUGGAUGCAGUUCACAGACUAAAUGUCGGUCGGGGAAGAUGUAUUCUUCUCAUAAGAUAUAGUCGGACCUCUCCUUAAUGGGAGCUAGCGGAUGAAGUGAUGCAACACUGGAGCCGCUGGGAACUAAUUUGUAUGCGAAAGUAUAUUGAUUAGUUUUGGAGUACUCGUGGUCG;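 further: selection with 25 µg/mL kanamycin versus none on LB agar overnight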
# conditionInfo: 30 °C

| seqText | self-splicing fitness (ln) |
| --- | --- |
| CUACAGCAAUAUUACGGACU | -1.76 |
| CAUCAGCAAUAUUACGAGUC | -4.85 |
| CGCGAGCAAUAUUACGCUUG | -3.06 |
| UCCCAGCAAUAUUACGGCGC | -1.67 |
| GCAUAGCAAUAUUACGGCGU | -0.347 |
| AAACAGCAAUAUUACGAUUU | -0.279 |
| GAUCAGCAAUAUUACGAACU | -0.585 |
| GGGAAGCAAUAUUACGCUGU | -2.38 |
| UUAAAGCAAUAUUACGUACA | 0.237 |
| ACUGAGCAAUAUUACGGGCG | -2.3 |
| GCUUAGCAAUAUUACGAUUG | -3.31 |
| GUCCAGCAAUAUUACGUGGC | -3.97 |
| ACAAAGCAAUAUUACGACUU | -0.336 |
| GCGGAGCAAUAUUACGACAC | -0.913 |
| UGAUAGCAAUAUUACGUCCU | -0.302 |
| GCUGAGCAAUAUUACGCUAU | -3.25 |

---

# assayComment: self-splicing fitness, log relative to wild type (ln ratio); higher = more splicing; Tetrahymena group I intron in knt gene, E. coli kanamycin selection, DiMSum; sequences stand for … in CUCUCU…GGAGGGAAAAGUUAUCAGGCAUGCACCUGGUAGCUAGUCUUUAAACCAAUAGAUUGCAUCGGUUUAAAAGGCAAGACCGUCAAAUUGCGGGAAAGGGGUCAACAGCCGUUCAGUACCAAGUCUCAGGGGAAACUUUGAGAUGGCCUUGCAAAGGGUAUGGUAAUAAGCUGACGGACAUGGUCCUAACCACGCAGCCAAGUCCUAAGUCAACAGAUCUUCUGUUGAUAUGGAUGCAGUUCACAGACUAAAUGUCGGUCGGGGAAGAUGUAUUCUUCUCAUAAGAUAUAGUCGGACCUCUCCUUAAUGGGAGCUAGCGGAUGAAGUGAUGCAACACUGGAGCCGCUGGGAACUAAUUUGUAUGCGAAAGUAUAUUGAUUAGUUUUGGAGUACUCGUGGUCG
# conditionInfo: 37 °C
self-splicing fitness (ln) reference
recordedMetric: self-splicing fitness (ln)

| seqText | recordedMetric | recordedNumber |
| --- | --- | --- |
| AGGGAGCAAUAUUACGAGUU | self-splicing fitness (ln) | -1.45 |
| AACCAGCAAUAUUACGUGCA | self-splicing fitness (ln) | -0.0717 |
| UUUUAGCAAUAUUACGGUGA | self-splicing fitness (ln) | 0.0249 |
| AAACAGCAAUAUUACGAAAA | self-splicing fitness (ln) | -1.8 |
| ACGUAGCAAUAUUACGAUUC | self-splicing fitness (ln) | -2.41 |
| GGAUAGCAAUAUUACGAACU | self-splicing fitness (ln) | -0.573 |
| AUAAAGCAAUAUUACGCGCU | self-splicing fitness (ln) | -0.603 |
| GGUCAGCAAUAUUACGGCUA | self-splicing fitness (ln) | 0.494 |

---

Measured self-splicing fitness (ln), listed per entry for reference.
# assayComment: self-splicing fitness, log relative to wild type (ln ratio); higher = more splicing; Tetrahymena group I intron in knt gene, E. coli kanamycin selection, DiMSum; sequences stand for … in CUCUCU…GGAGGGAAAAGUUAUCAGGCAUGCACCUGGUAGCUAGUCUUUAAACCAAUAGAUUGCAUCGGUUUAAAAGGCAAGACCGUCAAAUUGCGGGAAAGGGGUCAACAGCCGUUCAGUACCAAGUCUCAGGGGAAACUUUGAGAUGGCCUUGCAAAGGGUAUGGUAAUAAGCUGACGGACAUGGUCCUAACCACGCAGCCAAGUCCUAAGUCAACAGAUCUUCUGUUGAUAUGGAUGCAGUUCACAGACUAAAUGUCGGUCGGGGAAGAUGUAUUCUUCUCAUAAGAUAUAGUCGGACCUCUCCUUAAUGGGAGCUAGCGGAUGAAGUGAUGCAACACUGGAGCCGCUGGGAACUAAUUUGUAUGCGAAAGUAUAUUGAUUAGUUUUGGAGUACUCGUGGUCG
# conditionInfo: 37 °C
recordedMetric: self-splicing fitness (ln)

| seqText | recordedMetric | recordedNumber |
| --- | --- | --- |
| CUCAAGCAAUAUUACGGUUC | self-splicing fitness (ln) | -2.74 |
| ACAUAGCAAUAUUACGACAC | self-splicing fitness (ln) | -1.29 |
| UGAAAGCAAUAUUACGGCGC | self-splicing fitness (ln) | -0.486 |
| GUAUAGCAAUAUUACGGGCU | self-splicing fitness (ln) | -1.38 |
| GAACAGCAAUAUUACGGGGA | self-splicing fitness (ln) | -0.774 |
| GUGGAGCAAUAUUACGAGUG | self-splicing fitness (ln) | -1.74 |
| UGACAGCAAUAUUACGAGAG | self-splicing fitness (ln) | -1.75 |
| AAAUAGCAAUAUUACGCGUU | self-splicing fitness (ln) | -1.22 |
| UUCCAGCAAUAUUACGAGCA | self-splicing fitness (ln) | -0.767 |
| CAUGAGCAAUAUUACGUGGU | self-splicing fitness (ln) | -2.49 |
| CACCAGCAAUAUUACGUGAA | self-splicing fitness (ln) | -0.875 |
| CACAAGCAAUAUUACGAAAG | self-splicing fitness (ln) | 0.0107 |
| GCAUAGCAAUAUUACGCGGC | self-splicing fitness (ln) | -2.38 |
| GGGUAGCAAUAUUACGCAUG | self-splicing fitness (ln) | -2.73 |
| GAUUAGCAAUAUUACGACCC | self-splicing fitness (ln) | 0.12 |
| GCCGAGCAAUAUUACGGUGU | self-splicing fitness (ln) | -0.986 |
| UGGUAGCAAUAUUACGACUG | self-splicing fitness (ln) | -0.806 |
| CCUGAGCAAUAUUACGCCGA | self-splicing fitness (ln) | -3.2 |
| CAUGAGCAAUAUUACGUAAA | self-splicing fitness (ln) | -3.43 |
| UUACAGCAAUAUUACGCGGC | self-splicing fitness (ln) | -2.03 |
| UAAGAGCAAUAUUACGCGUU | self-splicing fitness (ln) | -2.04 |
| CUCGAGCAAUAUUACGUUGA | self-splicing fitness (ln) | -2.63 |
| CUAUAGCAAUAUUACGUUAC | self-splicing fitness (ln) | -2.14 |
| GCCUAGCAAUAUUACGUACA | self-splicing fitness (ln) | -1.7 |
| CUCGAGCAAUAUUACGGGUG | self-splicing fitness (ln) | -1.88 |
| ACUUAGCAAUAUUACGGCAG | self-splicing fitness (ln) | -0.759 |
| UCUGAGCAAUAUUACGAAGA | self-splicing fitness (ln) | -0.838 |
| UACCAGCAAUAUUACGUUCG | self-splicing fitness (ln) | 0.0802 |
| GGUGAGCAAUAUUACGGUGG | self-splicing fitness (ln) | -2.88 |
| GUUAAGCAAUAUUACGAAAA | self-splicing fitness (ln) | -2.1 |
| CACCAGCAAUAUUACGCUGG | self-splicing fitness (ln) | -2.41 |
| UUAGAGCAAUAUUACGUCGA | self-splicing fitness (ln) | 0.172 |
| GGACAGCAAUAUUACGACGG | self-splicing fitness (ln) | -2.16 |
| AUUGAGCAAUAUUACGACUA | self-splicing fitness (ln) | -1.89 |

---

# self-splicing fitness (ln) listing for each entry below
# assayComment: self-splicing fitness, log relative to wild type (ln ratio); higher = more splicing; Tetrahymena group I intron in knt gene, E. coli kanamycin selection, DiMSum; sequences stand for … in CUCUCU…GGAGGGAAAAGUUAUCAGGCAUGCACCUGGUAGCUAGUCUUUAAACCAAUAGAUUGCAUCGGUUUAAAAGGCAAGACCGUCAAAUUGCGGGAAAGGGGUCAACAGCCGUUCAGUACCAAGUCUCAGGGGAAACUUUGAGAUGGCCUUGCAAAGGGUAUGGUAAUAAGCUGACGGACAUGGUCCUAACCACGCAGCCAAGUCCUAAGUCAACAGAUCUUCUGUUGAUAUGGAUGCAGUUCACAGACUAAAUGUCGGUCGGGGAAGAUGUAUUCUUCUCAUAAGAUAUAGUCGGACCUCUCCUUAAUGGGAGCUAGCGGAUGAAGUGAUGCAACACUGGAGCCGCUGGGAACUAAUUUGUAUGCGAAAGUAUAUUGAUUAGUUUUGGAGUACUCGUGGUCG
# conditionInfo: 30 °C

| seqText | self-splicing fitness (ln) |
| --- | --- |
| CGUCAGCAAUAUUACGAACG | -2.55 |
| AUCCAGCAAUAUUACGCCCA | -0.76 |
| AUUGAGCAAUAUUACGUGCC | -2.73 |
| ACGUAGCAAUAUUACGACAG | -2.56 |
| GCAUAGCAAUAUUACGGUGA | -0.491 |
| GCAGAGCAAUAUUACGUUGU | -5.06 |
| CGUAAGCAAUAUUACGAAGU | -3.81 |
| GCGAAGCAAUAUUACGGCGC | -2.48 |
| AAUUAGCAAUAUUACGCGCG | -1.62 |
| CGCGAGCAAUAUUACGCUAA | -2.95 |
| GCAUAGCAAUAUUACGGUCU | -1.57 |
| GUCUAGCAAUAUUACGCGAU | -1.94 |
| GUAAAGCAAUAUUACGAACC | -2.39 |
| UCUCAGCAAUAUUACGAACC | -1.84 |
| CUGGAGCAAUAUUACGCCUA | -1.84 |
| UACGAGCAAUAUUACGCUGG | -3.2 |
| GUUAAGCAAUAUUACGGCAA | 0.045 |
| UUAGAGCAAUAUUACGGCCU | -4.22 |
| GCUCAGCAAUAUUACGCCGA | -2.43 |
| AUUCAGCAAUAUUACGGGAC | -3.2 |
| CCGAAGCAAUAUUACGUUCU | -3.84 |
| AAGUAGCAAUAUUACGGCUU | -1.4 |
| GACCAGCAAUAUUACGACAA | -0.854 |
| CCGUAGCAAUAUUACGACAG | -0.678 |
| UUUUAGCAAUAUUACGUGGU | -3.72 |
| UCCAAGCAAUAUUACGCAGC | -2.73 |
| GAAAAGCAAUAUUACGGGGG | -3.11 |
| ACUAAGCAAUAUUACGUUGA | -2.67 |
| AAUCAGCAAUAUUACGUUGG | -2.06 |
| UUCUAGCAAUAUUACGGACG | -1.14 |
| CAAAAGCAAUAUUACGCGAG | -2.58 |
| GUGCAGCAAUAUUACGUAGU | -1.37 |
| AAGGAGCAAUAUUACGCGGA | -2.07 |
| CGACAGCAAUAUUACGGAAU | -2.5 |
